Data origin, for the record: patent US7906507B2

- target_of_assay: cloned human GLP-1 receptor (Homo sapiens)
- Construct: expressed in transfected cells; host or cells: CHO or HEK-293 cells
- method_description: Functional cell-based assay: cAMP functional assay
assay_endpoint: EC50 (nM)
Number in nM, nothing else.

Examples with answers:
>  <compound>
N#Cc1ccc(-c2ccc(C[C@H](NC(=O)[C@@H]3Cc4cc5c(cc4CN3S(=O)(=O)c3ccccc3[N+](=O)[O-])OC(c3ccc(OCc4ccc(Cl)c(Cl)c4)cc3)C(=O)N5)C(=O)O)cc2)cc1 (stereo partly drawn) [Example 51]

>  <EC50 (nM)>
820

$$$$
>  <compound>
CC(C)OC(=O)N1Cc2cc3c(cc2C[C@H]1C(=O)N[C@@H](Cc1ccc(-c2ccc(C#N)cc2)cc1)C(=O)O)NC(=O)C(c1ccc(OCc2ccc(Cl)c(Cl)c2)cc1)O3 (stereo partly drawn) [Example 8]

>  <EC50 (nM)>
134

$$$$
>  <compound>
CC[C@@H](c1ccccc1)N1Cc2cc3c(cc2C[C@H]1C(=O)N[C@H](Cc1ccc(-c2ccc(C#N)cc2)cc1)C(=O)O)N(C)C(=O)[C@@H](c1ccc(OCc2ccc(Cl)c(Cl)c2)cc1)O3 [Example 98]

>  <EC50 (nM)>
626

$$$$

Exam item: For cloned human GLP-1 receptor (Homo sapiens), provide EC50 of CC(C)(C)COC(=O)N1Cc2cc3c(cc2C[C@H]1C(=O)N[C@@H](Cc1ccc(-c2ccc(C#N)cc2)cc1)C(=O)O)NC(=O)C(c1ccc(OCc2ccc(Cl)c(Cl)c2)cc1)O3 (stereo partly drawn) [Example 10] please.
Marked response: 418

Exam item: For cloned human GLP-1 receptor (Homo sapiens), provide EC50 of CC[C@@H](c1ccccc1)N1Cc2cc3c(cc2C[C@H]1C(=O)N[C@@H](Cc1ccc(-c2ccc(F)cc2)cc1)C(=O)O)N(C)C(=O)[C@@H](c1ccc(OCc2ccc(Cl)c(Cl)c2)cc1)O3 [Example 92] please.
Marked response: 723

Exam item: For cloned human GLP-1 receptor (Homo sapiens), provide EC50 of O=C1Nc2cc3c(cc2OC1c1ccc(OCc2ccc(Cl)c(Cl)c2)cc1)CN(C(=O)c1ccccc1)[C@H](C(=O)N[C@@H](Cc1ccc(-c2ccc(Cl)cc2)cc1)C(=O)O)C3 (stereo partly drawn) [Example 84] please.
Marked response: 920

* * *

- target_of_assay: cloned human GLP-1 receptor (Homo sapiens, UniProt P43220)
- Construct: expressed in transfected cells; host or cells: CHO or HEK-293 cells
- Sequence (P43220 24-463): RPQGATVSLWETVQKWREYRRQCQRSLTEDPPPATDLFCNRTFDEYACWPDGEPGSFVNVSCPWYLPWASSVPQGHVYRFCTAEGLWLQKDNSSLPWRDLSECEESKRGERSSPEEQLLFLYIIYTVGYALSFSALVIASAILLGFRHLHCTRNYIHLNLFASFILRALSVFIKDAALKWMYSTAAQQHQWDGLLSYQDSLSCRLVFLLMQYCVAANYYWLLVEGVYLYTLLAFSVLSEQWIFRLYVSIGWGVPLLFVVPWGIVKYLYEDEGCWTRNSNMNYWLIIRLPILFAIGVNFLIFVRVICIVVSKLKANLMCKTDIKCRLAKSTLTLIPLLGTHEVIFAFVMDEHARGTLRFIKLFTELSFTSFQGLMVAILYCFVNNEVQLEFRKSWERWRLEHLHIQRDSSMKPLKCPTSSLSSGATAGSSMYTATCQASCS
- method_description: Functional cell-based assay: cAMP functional assay
- experimental_context: 0.5 h; percentage relative to maximal GLP-1-induced cAMP accumulation; na = not active in the assay; read-out: % activation
assay_endpoint: Emax (%)
Number in %, nothing else.

Examples with answers:
>  <molecule>
Cc1ccc(-c2ccc(C[C@H](NC(=O)[C@@H]3Cc4cc5c(cc4CN3Cc3ccccn3)OC(c3ccc(OCc4ccc(Cl)c(Cl)c4)cc3)C(=O)N5)C(=O)O)cc2)cc1 (some centres unmarked) [Example 85]

>  <observed>
55

$$$$
>  <molecule>
N#Cc1ccc(-c2ccc(C[C@H](NC(=O)[C@@H]3Cc4cc5c(cc4CN3CC3CC3)OC(c3ccc(OCc4ccc(Cl)c(Cl)c4)cc3)C(=O)N5)C(=O)O)cc2)cc1 (some centres unmarked) [Example 54]

>  <observed>
11.8

$$$$

Exam item: Dear colleague, I am looking for the recorded Emax of the following molecule: N#Cc1ccc(-c2ccc(C[C@H](NC(=O)[C@@H]3Cc4cc5c(cc4CN3Cc3ccccc3)OC(c3ccc(OCc4ccc(Cl)c(Cl)c4)cc3)C(=O)N5)C(=O)O)cc2)cc1 (some centres unmarked) [Example 34]
Marked response: 31

Exam item: Dear colleague, I am looking for the recorded Emax of the following molecule: N#Cc1ccc(-c2ccc(C[C@H](NC(=O)[C@@H]3Cc4cc5c(cc4CN3C(=O)c3ccccc3)OC(c3ccc(OCc4cccc(Cl)c4)cc3)C(=O)N5)C(=O)O)cc2)cc1 (some centres unmarked) [Example 59]
Marked response: 52

Exam item: Dear colleague, I am looking for the recorded Emax of the following molecule: Cc1cc(C(=O)N2Cc3cc4c(cc3C[C@H]2C(=O)N[C@@H](Cc2ccc(-c3ccc(C#N)cc3)cc2)C(=O)O)NC(=O)C(c2ccc(OCc3ccc(Cl)c(Cl)c3)cc2)O4)no1 (some centres unmarked) [Example 31]
Marked response: 13
